test system: SW-620 colon; test: NCI tumour cell line growth inhibition, 48 h; in the data active = GI50 below about 0.43 µM; inactive = the rest
Outcome codes: active, inactive

>  <molecule>
COc1ccc(CNc2nc3cc(N)cc(N)c3nc2-c2ccccc2)cc1OC

>  <classLabel>
inactive

$$$$
>  <molecule>
COc1ccc(C2=NN(C(=O)COc3ccc(Cl)cc3)C(O)(c3cc(F)c(Cl)cc3Cl)C2)cc1OC (stereo not drawn)

>  <classLabel>
inactive

$$$$
>  <molecule>
COC1/C=C\C=C(/C)C(=O)Nc2cc3nc4ccc(Br)cc4oc-3c(c2=O)CC(C)CC(OC)C(O)C(C)/C=C(\C)C1OC(N)=O (stereo not drawn)

>  <classLabel>
active

$$$$
>  <molecule>
Cn1ccc2c(NCCN)c3c(c(NCCN)c21)C(=O)c1ccccc1C3=O

>  <classLabel>
inactive

$$$$
>  <molecule>
O=[N+]([O-])c1ccc(-c2nc(N(CCO)CCO)c3ccccc3n2)o1

>  <classLabel>
active

$$$$
>  <molecule>
C=C1CC[C@@]2(C#N)[C@H]3[C@H](CC[C@@H]2C)[C@@H](C)C[C@@H](CC(C)(C)C#N)[C@H]13

>  <classLabel>
inactive

$$$$
>  <molecule>
C[C@@H]1O[C@@H](O[C@@H]2[C@@H](O)[C@H](OCCc3ccc(O)c(O)c3)O[C@H](COC(=O)/C=C/c3ccc(O)c(O)c3)[C@H]2O)[C@H](O)[C@H](O)[C@H]1O

>  <classLabel>
inactive

$$$$
>  <molecule>
COc1cc(C(=O)O[C@H](C(=O)NCCNC(=O)[C@@H](OC(=O)c2cc(OC)cc3c(C)cccc23)[C@]2(C)CO2)[C@]2(C)CO2)c2cccc(C)c2c1

>  <classLabel>
active

$$$$

---

The reader will find reported TGI values listed item by item below.
tested on: SK-MEL-5 melanoma; test: NCI tumour cell line growth inhibition, 48 h
parameterMeasured: TGI

>  <molecule>
c1cc2c(cc1C(N1CCNCC1)N1CCNCC1)OCO2

>  <experimentalValue>
> 100 µM

$$$$
>  <molecule>
COc1ccc2c([nH]c3cc(O)c(C)cc32)c1C=O

>  <experimentalValue>
> 25 µM

$$$$
>  <molecule>
NCCCC(=O)Nc1ccncc1

>  <experimentalValue>
> 100 µM

$$$$
>  <molecule>
OCC(O)C(O)C(O)C1SC(c2ccccc2)=NN1c1ccccc1 (centres undefined)

>  <experimentalValue>
> 100 µM

$$$$

---

system: NCI/ADR-RES ovarian; assay: NCI tumour cell line growth inhibition, 48 h
The reader will find reported TGI values listed item by item below.

>  <compound>
CC(/C=N/N(C)C1=NCCCCN1)=N/N(C)C1=NCCCCN1

>  <TGI>
> 100 µM

$$$$
>  <compound>
CCSCC(=O)N1CCc2c([nH]c3ccccc23)C1=O

>  <TGI>
> 100 µM

$$$$
>  <compound>
N#Cc1nc(C(F)(F)F)oc1N

>  <TGI>
> 100 µM

$$$$
>  <compound>
CC(=O)Nc1nc(SCc2ccccc2)c2ncn(C(C)=O)c2n1

>  <TGI>
> 100 µM

$$$$
>  <compound>
CC([C@H]1CCC2C3CCC4C[C@@H](NC=O)CC[C@]4(C)C3CC[C@@]21C)N(C)C (some centres not stated)

>  <TGI>
21.4 µM

$$$$
>  <compound>
O=C1CCCCCCCC/C=C/CCC(c2ccco2)O1 (configuration not stated)

>  <TGI>
> 100 µM

$$$$
>  <compound>
Fc1ccc(C2NC(=S)NC3=C2CCOc2c3ccc3ccccc23)cc1 (configuration not stated)

>  <TGI>
76.2 µM

$$$$
>  <compound>
COc1ccc(C2c3cc4c(cc3OC(NNC(N)=O)C2C)OCO4)cc1 (configuration not stated)

>  <TGI>
> 100 µM

$$$$
>  <compound>
c1ccc2c(c1)nc1n2CCNC1

>  <TGI>
> 100 µM

$$$$
>  <compound>
O=C(Nc1ccccc1)c1cc(S(=O)(=O)Nc2n[nH]c(=O)[nH]2)c(SSc2cc(Cl)c(C(=O)Nc3ccccc3)cc2S(=O)(=O)Nc2n[nH]c(=O)[nH]2)cc1Cl

>  <TGI>
> 100 µM

$$$$
>  <compound>
Cc1cccc(/C=N/NC(=S)N2CCCCCC2)n1

>  <TGI>
0.202 µM

$$$$
>  <compound>
CCCCCNC(=O)[C@@H]1CCCN2C(=O)CC[C@H](NC(=O)[C@H](Cc3ccc(OP(=O)(O)O)cc3)NC(C)=O)C(=O)N12

>  <TGI>
> 25 µM

$$$$
>  <compound>
OCc1c2c(cc3c1CC1(C3)Cc3cc4c(c(CO)c3C1)CCC4)CCC2

>  <TGI>
37.8 µM

$$$$
>  <compound>
CC(C)=CCC/C(=C\CC/C(=C\CCc1ccoc1)C(=O)O)C(=O)O

>  <TGI>
> 100 µM

$$$$
>  <compound>
COc1ccc(OC)c(C(=O)/C=C/c2cc(O)c(O)cc2F)c1

>  <TGI>
> 89.5 µM

$$$$
>  <compound>
CCn1nc(-c2ccccc2)c2c1N(C)c1ccccc1-n1c(-c3ccccc3)nnc1-2

>  <TGI>
40.3 µM

$$$$
>  <compound>
O=C(Nc1ccc(-n2cc(-c3ccncc3)c(-c3ccc(Cl)c(O)c3)n2)cc1)Nc1cc(C(F)(F)F)cc(C(F)(F)F)c1

>  <TGI>
5.6 µM

$$$$
